# Test system: Streptococcus pneumoniae
# ASSAY INFO: Antibacterial activity against efflux-mediated macrolide-resistance Streptococcus pneumoniae Ci137 by broth microdilution method
# Type: functional
# CONDITIONS USED: read-out: MIC
Each entry below carries its reported MIC.

{"SMILES ENTRY": "CCCCn1cc(C(=O)O)c(=O)c2cc(CCCOCCCO[C@H]3[C@H](C)O[C@@H](O[C@H]4[C@H](C)[C@@H](O[C@@H]5O[C@H](C)C[C@H](N(C)C)[C@H]5O)[C@](C)(O)C[C@@H](C)CN(C)[C@H](C)[C@@H](O)[C@](C)(O)[C@@H](CC)OC(=O)[C@@H]4C)C[C@@]3(C)OC)ccc21", "STUDY TARGET": "Streptococcus pneumoniae", "MIC": "≤ 0.125 µg/mL"}

Here is another molecule to look at.
Exercise: Any idea what MIC came out for CC[C@H]1OC(=O)[C@H](C)[C@@H](O[C@H]2C[C@@](C)(OC)[C@@H](OCCCOCCCCCc3ccc4c(c3)c(=O)c(C(=O)O)cn4CC)[C@H](C)O2)[C@H](C)[C@@H](O[C@@H]2O[C@H](C)C[C@H](N(C)C)[C@H]2O)[C@](C)(O)C[C@@H](C)CN(C)[C@H](C)[C@@H](O)[C@]1(C)O on Streptococcus pneumoniae?
Solution: ≤ 0.125 µg/mL
